TEST NAME: Selectivity index, ratio of EC50 for toxicity in human A549 cells to MIC50 for antifungal activity against Candida krusei ATCC 6258
VALUE TYPE: selectivity ratio
// response body must contain only the number

Worked cases, answers included:
| MOLECULE | selectivity ratio |
| --- | --- |
| CCCCCCC(O)(Cn1cncn1)c1ccccc1Cl (centres undefined) | 261 |
| CCCCCC(O)(Cn1cncn1)c1ccccc1Cl (centres undefined) | 32 |
| CCCCCCC(O)(Cn1cncn1)c1ccc(Cl)cc1Cl (centres undefined) | 667 |

Shift focus to the following entry.
Exam item: Need selectivity ratio, item CCCCC(O)(Cn1cncn1)c1ccc(Cl)cc1Cl (centres undefined)
Marked response: 522

----------
Reported MIC50 values for the following compounds.
System: Candida albicans
TEST NAME: Antifungal activity against ITC and FLC-susceptible Candida albicans ATCC MYA-2876 incubated for 48 hrs by modified CLSI M27-A3 protocol based method
Type: functional
RUN PARAMETERS: ATCC MYA-2876, 48 h

| COMPOUND | VALUE TYPE | MEAS VALUE |
| --- | --- | --- |
| CC(O)(Cn1cncn1)c1ccc(F)cc1F (stereo not drawn) | MIC50 | > 131 µM |
| CCCCCC(O)(Cn1cncn1)c1cccc(Cl)c1 (stereo not drawn) | MIC50 | > 106 µM |

Exam item: Need MIC50, item CCCCCCC(O)(Cn1cncn1)c1cccc(Cl)c1 (stereo not drawn)
Marked response: > 102 µM

Source: ChEMBL document CHEMBL4265871
